# Tested on: HCT-116
# Protocol summary: NCI tumour cell line growth inhibition, 48 h
Calls of active or inactive are those of the source. Rule as the data show it: active = GI50 up to about 1.1 µM and inactive = higher.
Reported metric: GI50

Examples with answers:
Compound	Val
O=C(Nc1nc2ccc([N+](=O)[O-])cc2s1)c1cc([N+](=O)[O-])ccc1Cl	1.71 µM (inactive)
C=CCN1C(=O)/C(=C/c2ccc(Cl)cc2)N=C1SC/C=C/C	17 µM (inactive)
Cn1cc(NC(=O)c2cc(NC(=O)CCCCCCCC(=O)Nc3cc(C(=O)Nc4cc(C(=O)NCCC(=N)N)n(C)c4)n(C)c3)cn2C)cc1C(=O)NCCC(=N)N	17.9 µM (inactive)
OCN(CO)c1ccc2c(c1)Cc1cc(F)ccc1-2	39.5 µM (inactive)

As a next step, examine the compound that follows.
May I ask what GI50 has been recorded for C=CC12CN(C)C3C4COC(CC41)C1(C(=O)Nc4ccccc41)C32 (stereo not given) ? 158 µM (inactive)
